Item-by-item account of 5-HT2C Function Emax (%)
Target: human 5-HT2C receptor (Homo sapiens)
Sequence (P28335 33-458): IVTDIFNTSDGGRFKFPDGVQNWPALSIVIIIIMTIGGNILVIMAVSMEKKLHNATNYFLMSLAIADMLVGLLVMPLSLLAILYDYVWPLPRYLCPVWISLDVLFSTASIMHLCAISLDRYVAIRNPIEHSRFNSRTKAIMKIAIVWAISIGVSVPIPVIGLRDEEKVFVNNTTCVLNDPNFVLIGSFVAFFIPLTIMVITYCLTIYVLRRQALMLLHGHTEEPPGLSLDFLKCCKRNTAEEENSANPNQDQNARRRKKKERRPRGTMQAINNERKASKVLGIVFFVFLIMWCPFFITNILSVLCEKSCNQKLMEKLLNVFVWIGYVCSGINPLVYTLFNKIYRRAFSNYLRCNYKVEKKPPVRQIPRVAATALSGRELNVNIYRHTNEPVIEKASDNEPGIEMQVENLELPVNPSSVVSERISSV
Experiment: 5-HT2C receptor-stimulated calcium mobilization (FLIPR) in CHO cells
Assay type: cell-based
Conditions: percentage of the response observed with a maximally effective concentration of 5-HT
Please state the figure in %; there is no need to write the unit.

[[record]]
molecule = "NCC1Cc2cccc(-c3ccc(Cl)cc3Cl)c2O1 (single isomer, unassigned; (+)) [Example 150]"
readout_kind = "5-HT2C Function Emax (%)"
recorded_number = 100


IN: For the molecule Cc1ccccc1-c1cc(F)cc2c1OC(CN)C2 (single isomer, unassigned; (-)) [Example 106] , report 5-HT2C Function Emax (%).
OUT: 50

IN: Hello, please tell me recorded 5-HT2C Function Emax (%) for this one: NCC1Cc2cc(F)cc(-c3ccccc3Cl)c2O1 (single isomer, unassigned; (-)) [Example 102]
OUT: 65

IN: Give the reported value of 5-HT2C Function Emax (%) for this record: CNCC1Cc2cc(F)cc(-c3ccc(Cl)cc3Cl)c2O1 (single isomer, unassigned; (+)) [Example 447]
OUT: 90

IN: Look up and report measured 5-HT2C Function Emax (%) for this entry: Cc1cccc(C)c1-c1cccc2c1OC(CN)C2 (single isomer, unassigned; (+)) [Example 58]
OUT: 60

IN: Tell me 5-HT2C Function Emax (%) reported for NCC1Cc2cc(Cl)cc(-c3ccc(Cl)cc3Cl)c2O1 (single isomer, unassigned; (+)) [Example 253]
OUT: 90

IN: Let me know recorded 5-HT2C Function Emax (%) for NCC1Cc2cccc(-c3ccc(Cl)cc3)c2O1 (single isomer, unassigned; (-)) [Example 78] , thanks.
OUT: 90

IN: Fill in 5-HT2C Function Emax (%) for record CNCC1Cc2cc(F)cc(-c3c(Cl)cccc3Cl)c2O1 (single isomer, unassigned; (-)) [Example 544]
OUT: 70

IN: Let me know recorded 5-HT2C Function Emax (%) for NCC1Cc2cccc(-c3cccc(Cl)c3)c2O1 (single isomer, unassigned; (+)) [Example 66] , thanks.
OUT: 100

IN: Identify the reported 5-HT2C Function Emax (%) for the following entry. Cc1cc(Cl)ccc1-c1cccc2c1OC(CN)C2 (single isomer, unassigned; (-)) [Example 159]
OUT: 80

IN: Please look at this molecule and report its 5-HT2C Function Emax (%): CNCC1Cc2cc(C)cc(-c3cc(Cl)ccc3Cl)c2O1 (single isomer, unassigned; (-)) [Example 488]
OUT: 90

IN: Fill in reported 5-HT2C Function Emax (%) for this entry: Cc1ccccc1-c1cc(Cl)cc2c1OC(CN)C2 (single isomer, unassigned; (+)) [Example 96]
OUT: 100

IN: Answer with reported 5-HT2C Function Emax (%) of CNCC1Cc2cc(F)cc(-c3cccc(OC)c3OC)c2O1 (single isomer, unassigned; (+)) [Example 569]
OUT: 60

IN: Hello, please tell me recorded 5-HT2C Function Emax (%) for this one: CNCC1Cc2cc(F)cc(-c3ccccc3C)c2O1 (single isomer, unassigned; (+)) [Example 442]
OUT: 90

IN: Report 5-HT2C Function Emax (%), nothing else, for this molecule: COc1cccc(-c2cc(C)cc3c2OC(CN)C3)c1OC (single isomer, unassigned; (+)) [Example 296]
OUT: 80

* * *

Biological target: human 5-HT2C receptor (Homo sapiens)
Sequence (P28335 33-458): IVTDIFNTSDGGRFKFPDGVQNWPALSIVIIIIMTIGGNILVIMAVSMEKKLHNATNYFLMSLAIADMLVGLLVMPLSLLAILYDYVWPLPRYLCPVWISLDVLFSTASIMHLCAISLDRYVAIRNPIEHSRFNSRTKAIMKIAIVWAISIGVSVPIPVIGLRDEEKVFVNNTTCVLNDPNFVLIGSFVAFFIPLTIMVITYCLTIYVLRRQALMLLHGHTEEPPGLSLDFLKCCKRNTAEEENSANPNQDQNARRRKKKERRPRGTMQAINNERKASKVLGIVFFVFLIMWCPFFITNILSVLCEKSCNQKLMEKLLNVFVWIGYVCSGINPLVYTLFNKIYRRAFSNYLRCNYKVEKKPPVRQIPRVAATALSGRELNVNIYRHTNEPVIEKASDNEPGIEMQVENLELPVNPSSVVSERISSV
Experiment: 5-HT2C receptor-stimulated calcium mobilization (FLIPR) in CHO cells
Format: cell-based
Settings: calcium mobilization, CHO cells stably expressing human 5-HT2C; read-out: 5-HT2C Function EC50
pEC50 values, listed per item
A value of pEC50 is the negative decimal logarithm of a concentration given in moles per litre.

Recorded results for 5 molecules are shown here.
[[record]]
molecule = "NCC1Cc2cccc(-c3ccc(F)cc3)c2O1 (single isomer, unassigned; (+)) [Example 74]"
recorded_number = 7.96

[[record]]
molecule = "NCC1Cc2cc(F)cc(-c3ccccc3Cl)c2O1 (single isomer, unassigned; (+)) [Example 101]"
recorded_number = 9.49

[[record]]
molecule = "NCC1Cc2cc(C(F)(F)F)cc(-c3ccccc3Cl)c2O1 (racemic)"
recorded_number = 7.72

[[record]]
molecule = "CNCC1Cc2cc(F)cc(-c3cc(C)ccc3OC)c2O1 (racemic)"
recorded_number = 6.13

[[record]]
molecule = "Cc1ccccc1-c1cc(F)cc2c1OC(CN)C2 (single isomer, unassigned; (-)) [Example 106]"
recorded_number = 7.04


IN: Find the measured pEC50 of CNCC1Cc2cc(F)cc(-c3c(Cl)cccc3Cl)c2O1 (single isomer, unassigned; (-)) [Example 544] and report it.
OUT: 7.14

IN: // Input: Cc1cccc(-c2cc(C)cc3c2OC(CN)C3)c1 (racemic) . Output its pEC50 only.
OUT: 7.36

IN: Using the record for CNCC1Cc2cccc(-c3ccccc3F)c2O1 (racemic) , state its measured pEC50.
OUT: 7.47

IN: Report pEC50, nothing else, for this molecule: NCC1Cc2cc(Cl)cc(-c3cccc(Cl)c3Cl)c2O1 (racemic)
OUT: 6.79

IN: Specify measured pEC50 for CNCC1Cc2cccc(-c3ccccc3C)c2O1 (single isomer, unassigned; (+)) [Example 408] .
OUT: 8.22

IN: Answer with reported pEC50 of COc1cccc(-c2cc(F)cc3c2OC(CN)C3)c1OC (single isomer, unassigned; (-)) [Example 213]
OUT: 8.05

IN: Write down pEC50 measured for item Cc1ccccc1-c1cccc2c1OC(CN)C2 (single isomer, unassigned; (-)) [Example 49]
OUT: 6.88

IN: Report pEC50, nothing else, for this molecule: NCC1Cc2c(cccc2-c2ccccc2C(F)(F)F)O1 (racemic)
OUT: 6.03

IN: Please report pEC50 for the following molecule: COc1cc2c(c(-c3cccc(Cl)c3Cl)c1)OC(CN)C2 (racemic)
OUT: 6.46

IN: Indicate its recorded pEC50; the molecule in question is Cc1cccc(C)c1-c1cccc2c1OC(CN)C2 (racemic) [Example 56]
OUT: 7.22

IN: Please give the documented pEC50 of Cc1cc2c(c(-c3ccc(Cl)cc3Cl)c1)OC(CN)C2 (single isomer, unassigned; (+)) [Example 299]
OUT: 10.00

IN: Output measured pEC50 for this item: Cc1ccccc1-c1cccc2c1CC(CN)O2 (single isomer, unassigned; (+)) [Example 5]
OUT: 6.68

IN: Tell me pEC50 reported for Cc1cccc(C)c1-c1cc(Cl)cc2c1OC(CNC1CCC1)C2 (racemic)
OUT: 5.29

IN: Using the record for CNCC1Cc2cc(OC)cc(-c3c(C)cccc3C)c2O1 (single isomer, unassigned; (-)) [Example 560] , state its measured pEC50.
OUT: 8.70

IN: Quote pEC50 reported for COc1cccc(-c2cc(C)cc3c2OC(CN)C3)c1OC (single isomer, unassigned; (-)) [Example 295] please.
OUT: 8.10

* * *

# key: entry, value: Emax
Molecular target: human 5-HT2C receptor (Homo sapiens)
Sequence (P28335 33-458): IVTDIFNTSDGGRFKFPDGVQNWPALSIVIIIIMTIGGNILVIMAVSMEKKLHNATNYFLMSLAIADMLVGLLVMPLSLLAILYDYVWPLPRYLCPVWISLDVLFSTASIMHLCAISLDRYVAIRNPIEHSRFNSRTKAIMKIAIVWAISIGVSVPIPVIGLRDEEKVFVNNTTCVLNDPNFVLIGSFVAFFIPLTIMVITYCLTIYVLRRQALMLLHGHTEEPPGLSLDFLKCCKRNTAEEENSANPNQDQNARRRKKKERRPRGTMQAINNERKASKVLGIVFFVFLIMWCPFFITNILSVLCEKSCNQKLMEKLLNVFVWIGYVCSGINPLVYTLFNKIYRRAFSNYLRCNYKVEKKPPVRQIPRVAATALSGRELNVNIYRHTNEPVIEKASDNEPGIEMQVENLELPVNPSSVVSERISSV
Assay: 5-HT2C receptor-stimulated calcium mobilization (FLIPR) in CHO cells;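 also: Fluo-3-AM fluorescence read on FLIPR every 1 s, agonist added after 10 baseline reads, response taken as peak minus lowest raw fluorescence count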
Type: cell-based
Settings: CHO, percentage of the response observed with a maximally effective concentration of 5-HT; read-out: 5-HT2C Function Emax (%)
The answer is to be given in %; state only the numeric part.

[[record]]
compound = "NCC1Cc2cc(Cl)cc(-c3ccccc3)c2O1 (single isomer, unassigned; (+))"
unit_of_measure = "%"
recorded_number = 100

[[record]]
compound = "CNCC1Cc2cc(OC)cc(-c3c(C)cccc3C)c2O1 (single isomer, unassigned; (-)) [Example 560]"
unit_of_measure = "%"
recorded_number = 100

[[record]]
compound = "CNCC1Cc2cc(C)cc(-c3ccc(OC)cc3)c2O1 (racemic)"
unit_of_measure = "%"
recorded_number = 80


Consider now this further compound.
IN: Annotate the compound CNCC1Cc2cc(C)cc(-c3c(Cl)cccc3Cl)c2O1 (racemic) with its measured Emax.
OUT: 100
